- assay: AUC (0 to infinity) in male Sprague-Dawley rat at 20 mg/kg, po administered as single dose and measured upto 24 hrs by LC-MS/MS analysis
- Type: ADME, organism-based
- protocolConditions: in vivo
measuredMetric: AUC(0-inf) (ng·h/mL)
Unit ng·h/mL implied. Number only.

Ask: Fill in: AUC(0-inf) of `O=C(O)c1cn(C2CC2)c2cc(Nc3nccc(Cc4ccc(F)cc4F)n3)ccc2c1=O` is ___
Result: 171

---

Here the recorded microsomal CLint at 1 µM is given for each entry.
- assay: Metabolic stability in rat liver microsomes assessed as microsomal intrinsic clearance at 1 uM by LC-MS/MS analysis
- Assay type: ADME, Microsome
- protocolConditions: read-out: CLH
Be sure to follow the number with its unit.

# smilesRepr, endpointResult
data = [
    ("Cc1ccc(Cc2ccnc(Nc3ccc4c(=O)c(C(=O)O)cn(C5CC5)c4c3)n2)cc1C", "23.4 µL/min/mg"),
]

Ask: Fill in: microsomal CLint at 1 µM of `O=C(O)c1cn(C2CC2)c2cc(Nc3nccc(Cc4ccc(F)cc4F)n3)ccc2c1=O` is ___
Result: 33.8 µL/min/mg

Ask: Fill in: microsomal CLint at 1 µM of `Cc1ncc2n1-c1ccc(Cl)cc1C(c1ccccc1F)=NC2` is ___
Result: 1350 µL/min/mg
